# Test system: Nuclear hormone receptor DAF-12 (Heterodera glycines), GAL4 fusion
# Assay remarks: H. glycines DAF-12 receptor agonists, primary screen, cell-based, luminescence, HEK293, GAL4 fusion, UAS-luciferase (AID 687014);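 note: 0% = DMSO wells and 100% = sodium butyrate wells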
# Test context: HEK293 GAL4-hgDAF12 UAS-luciferase reporter, agonist luminescence; at 6.8 µM; stronger effect = higher value; normalized to butyrate control
About 6,800 (1.8%) of roughly 370,000 compounds were called active. This is one part of a sample in which actives are shown more often than they occur.
Assay endpoint: activation (%)
The response must be a number in % with no trailing unit.

• C/C(=N\NC(=O)CSc1nc2ccccc2c(=O)n1-c1ccccc1C)c1cccs1 = -2.57
• Cc1cc(C)c(C#N)c(SCC(=O)Nc2ccccc2)n1 = 11.8
• Cc1ccc(NC(=O)c2oc(=O)c3ccccc3c2-c2ccccc2)c(C)c1 = 2.59

# context switch: different compound, same activation
activation lookup needed for O=C(NCc1cccc(CNC(=O)Nc2cccc(O)c2)c1)Nc1cccc(O)c1 , thanks.
-0.42
